ASSAY_METHOD_TEXT: qHTS RealTime-Glo MT Cell Viability Assay in HepG2 cells - 16 hour (AID 1224885); note: nearly all actives have a fitted effect of over 50% in size
RECORDED_CONDITIONS: RealTime-Glo luminescence; series mostly up to 76.8 µM
Results filed as inconclusive are left out. Active and inactive are the calls of the source. Calls come from the whole dose curve; as a rule, active = well fitted cell-killing curve with a large enough effect in the repeat runs; inconclusive = weak or mixed curves; inactive = flat fitted curve, though single readings scatter.
MEASURED_ENDPOINT: activity change, negative = cytotoxic

Here are 4 compounds together with their reported answers.
Query: Returns the measured activity change, negative = cytotoxic for the input compound. Input: CC(O)C(C)O (stereo unspecified)
Reply: inactive

Query: Returns the measured activity change, negative = cytotoxic for the input compound. Input: CC(C)CCCCCCCOC(=O)c1ccc(C(=O)OCCCCCCCC(C)C)c(C(=O)OCCCCCCCC(C)C)c1
Reply: inactive

Query: Returns the measured activity change, negative = cytotoxic for the input compound. Input: CC(C)=CCCC(C)C=O (stereo unspecified)
Reply: inactive

Query: Returns the measured activity change, negative = cytotoxic for the input compound. Input: CC(C)NC(=O)c1ccccc1N
Reply: inactive

More entries:
Query: Returns the measured activity change, negative = cytotoxic for the input compound. Input: O=C(OC1C[C@H]2CC[C@@H](C1)[N+]21CCCC1)C(O)(c1ccccc1)c1ccccc1 (stereo partly specified)
Reply: inactive

Query: Returns the measured activity change, negative = cytotoxic for the input compound. Input: CCC(C(=O)O)c1ccc(N2Cc3ccccc3C2=O)cc1 (stereo unspecified)
Reply: inactive

* * *

ASSAY_METHOD_TEXT: qHTS assay for identifying genotoxic compounds that show differential cytotoxicity against isogenic chicken DT40 cell lines with known DNA damage response pathways - Rad54/Ku70 mutant cell line (AID 743015); note: nearly all actives have a fitted effect of over 60% in size
RECORDED_CONDITIONS: DT40 Rad54/Ku70 mutant viability, CellTiter-Glo, 40 h; series mostly up to 66.8 µM
Results filed as inconclusive are left out. The source made the active and inactive calls. Calls come from the whole dose curve; as a rule, active = well fitted cell-killing curve with a large enough effect in the repeat runs; inconclusive = weak or mixed curves; inactive = no such curve, though single readings can be large or run the other way.
Can you answer with just one of these options? 1 (yes) for active, 0 (no) for inactive

Query: So what was the verdict on CC/C=C/CCO in this test?
Reply: 0 (no)

* * *

ASSAY_METHOD_TEXT: qHTS assay to identify small molecule agonists of the sonic hedgehog signaling (Shh) pathway - cell viability counter screen (AID 1259366); note: nearly all actives have a fitted effect of over 50% in size
RECORDED_CONDITIONS: NIH/3T3 Gli1-Luc viability, CellTiter-Fluor, 24 h; series mostly up to 92.4 µM
Results filed as inconclusive are left out. Activity calls are given as the source filed them. The call rests on the fitted dose curve; in most records, active means well fitted cell-killing curve with a large enough effect in the repeat runs; inconclusive means weak or mixed curves, or effect the other way; inactive means flat fitted curve, though single readings scatter.
Can you answer with just one of these options? T = active, F = inactive

Please review the following examples before continuing.
Query: So what was the verdict on C=CC(O)CCCCC (stereo not drawn) in this test?
Reply: F

Query: So what was the verdict on CC(=O)c1cccnc1 in this test?
Reply: F

Query: So what was the verdict on Oc1ccc(CCNCCCCCCNCCc2ccccc2)cc1O in this test?
Reply: T

Query: So what was the verdict on Cc1c(N=C=O)cccc1N=C=O in this test?
Reply: F

Query: So what was the verdict on O=c1[nH][nH]c2ccccc12 in this test?
Reply: F

More entries:
Query: So what was the verdict on O=C(O)c1cccc(C(=O)O)c1C(=O)O in this test?
Reply: F

Query: So what was the verdict on Nc1ncnc2c1ncn2[C@@H]1O[C@H](CO)[C@@H](O)[C@H]1O in this test?
Reply: F

* * *

ASSAY_METHOD_TEXT: qHTS RealTime-Glo MT Cell Viability Assay in HEK293 cells - 32 hour (AID 1224868); note: nearly all actives have a fitted effect of over 50% in size
RECORDED_CONDITIONS: RealTime-Glo luminescence; series mostly up to 76.8 µM
Records with an inconclusive call do not appear. The source made the active and inactive calls. Calls follow the shape of the dose curve; as a rule, active = well fitted cell-killing curve with a large enough effect in the repeat runs; inconclusive = weak or mixed curves, or effect the other way; inactive = flat fitted curve, though single readings scatter.
Can you answer with just one of these options? active, inactive

Please review the following examples before continuing.
Query: So what was the verdict on CC(C)Cc1nccs1 in this test?
Reply: inactive

Query: So what was the verdict on C/C=C1\[C@H]2C=C(C)C[C@]1(N)c1ccc(=O)[nH]c1C2 in this test?
Reply: inactive

Query: So what was the verdict on C=CC(=O)OCCCCCCCCCC in this test?
Reply: inactive

Query: So what was the verdict on C=CC(C)CCC=C(C)C (centres undefined) in this test?
Reply: inactive

Query: So what was the verdict on CC(C)(C)c1cc(C=O)cc(C(C)(C)C)c1O in this test?
Reply: inactive

Query: So what was the verdict on CC(C)(C(=O)O)c1ccc(C(O)CCCN2CCC(C(O)(c3ccccc3)c3ccccc3)CC2)cc1 (centres undefined) in this test?
Reply: inactive

Query: So what was the verdict on OCCc1ccncc1 in this test?
Reply: inactive

Query: So what was the verdict on O=C(O)c1ccccc1[N+](=O)[O-] in this test?
Reply: inactive

Now consider the entry below.
Query: So what was the verdict on Cc1ccc(NC(=O)c2ccc(CN3CCN(C)CC3)cc2)cc1Nc1nccc(-c2cccnc2)n1 in this test?
Reply: active

meta.source: PubChem BioAssay (Tox21)
